Target: EP2 (Homo sapiens)
Construct: SF295 glioblastoma cells express high endogenous EP2 and no EP4
Sequence (P43116 whole entry): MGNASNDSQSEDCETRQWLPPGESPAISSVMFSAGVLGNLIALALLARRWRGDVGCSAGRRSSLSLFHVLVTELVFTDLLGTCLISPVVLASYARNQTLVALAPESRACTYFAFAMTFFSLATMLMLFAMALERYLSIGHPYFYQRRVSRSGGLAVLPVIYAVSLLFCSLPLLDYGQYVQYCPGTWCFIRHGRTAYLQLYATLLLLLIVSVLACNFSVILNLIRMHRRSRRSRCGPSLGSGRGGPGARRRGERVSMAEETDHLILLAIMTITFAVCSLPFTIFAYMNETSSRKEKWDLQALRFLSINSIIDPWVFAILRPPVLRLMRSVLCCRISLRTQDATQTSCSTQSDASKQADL
Test: hEP2 cAMP Assay (SF295 glioblastoma cells, HTRF cAMP, PGE2 75 nM)
Conditions: antagonistic activity, PGE2 75 nM (EC80)
pIC50: −log10 of the molar value.
// values below are reported pIC50
quantity: pIC50

[[record]]
compound = "CCOc1cc(-c2cc(NCCc3cccc4c(F)cccc34)ncn2)ccc1CC(=O)O [Example 163]"
quantity = "pIC50"
observed = 6.69

[[record]]
compound = "CCOc1cc(-c2cc(NCCc3ccc(C(F)F)c4ccccc34)ncn2)ccc1OCC(=O)O [Example 73]"
quantity = "pIC50"
observed = 6.33

[[record]]
compound = "CCOc1cc(-c2cc(NCCc3c(OC)ccc4ncccc34)ncn2)ccc1O [Example 90]"
quantity = "pIC50"
observed = 7.24

[[record]]
compound = "CCOc1cc(-c2cc(NCCc3cccc4sccc34)ncn2)sc1C(=O)O [Example 108]"
quantity = "pIC50"
observed = 7.28

[[record]]
compound = "CCOc1cc(-c2cc(NCCc3c(C)ccc4c3cnn4C)ncn2)ccc1O [Example 111]"
quantity = "pIC50"
observed = 6.77

[[record]]
compound = "CCOc1cc(-c2cc(NCCc3c(C)ccc4c3cnn4C)ncn2)ccc1OCC(=O)O [Example 80]"
quantity = "pIC50"
observed = 6.47

[[record]]
compound = "CCc1nc(-c2cc(NCCc3c(OC)ccc4ccccc34)ncn2)sc1-c1noc(=O)[nH]1 [Example 190]"
quantity = "pIC50"
observed = 8.10

[[record]]
compound = "CCOc1cc(-c2cc(NCCc3cccc4c3OCO4)ncn2)sc1C(=O)O [Example 36]"
quantity = "pIC50"
observed = 6.58

[[record]]
compound = "CCOc1cc(-c2cc(NCCc3ccc(C)c4ccccc34)ncn2)sc1C(=O)O [Example 18]"
quantity = "pIC50"
observed = 7.68

[[record]]
compound = "COc1ccc2ncccc2c1CCNc1cc(-c2ccc3c(=O)[nH]n(C)c3c2)ncn1 [Example 117]"
quantity = "pIC50"
observed = 6.25

[[record]]
compound = "CCOc1cc(-c2cc(NCCc3c(OC)ccc4ccccc34)ncn2)ccc1OCCC(=O)O [Example 120]"
quantity = "pIC50"
observed = 7.06

[[record]]
compound = "CCOc1cc(-c2cc(NCCc3c(C(F)F)ccc4ccccc34)ncn2)sc1C(=O)O [Example 70]"
quantity = "pIC50"
observed = 6.79

[[record]]
compound = "CCOc1cc(-c2cc(NCCc3c(OC)ccc4ccccc34)ncn2)ccc1-c1nnn[nH]1 [Example 125]"
quantity = "pIC50"
observed = 7.62

[[record]]
compound = "COc1ccc2c(c1CCNc1cc(-c3ccc(C(=O)O)c(OC4CCC4)c3)ncn1)OCO2 [Example 43]"
quantity = "pIC50"
observed = 6.60

[[record]]
compound = "CCOc1cc(-c2cc(NCCc3c(C#N)ccc4ccccc34)ncn2)sc1C(=O)O [Example 68]"
quantity = "pIC50"
observed = 8.52

[[record]]
compound = "CCOc1cc(-c2cc(NCCc3ccc(Br)c4ccccc34)ncn2)ccc1C(=O)O [Example 182]"
quantity = "pIC50"
observed = 6.68

[[record]]
compound = "O=C(O)c1ccc(-c2cc(NCCc3cccc4ccsc34)ncn2)cc1OC1CCC1 [Example 102]"
quantity = "pIC50"
observed = 6.65

[[record]]
compound = "CCOc1cc(-c2cc(NCCc3ccc(Cl)c4ccccc34)ncn2)sc1C(=O)O [Example 62]"
quantity = "pIC50"
observed = 7.62

[[record]]
compound = "CCOc1cc(-c2cc(NCCc3cccc4cc(C)[nH]c34)ncn2)sc1C(=O)O [Example 37]"
quantity = "pIC50"
observed = 7.28

[[record]]
compound = "COc1ccc2ccccc2c1CCNc1cc(-c2cc(OCCN(C)C)c(C(=O)O)s2)ncn1 [Example 157]"
quantity = "pIC50"
observed = 6.84

[[record]]
compound = "CCOc1cc(-c2cc(NCCc3ccc(F)c4ccccc34)ncn2)sc1C(=O)O [Example 21]"
quantity = "pIC50"
observed = 7.80

[[record]]
compound = "COc1ccc2ccccc2c1CCNc1cc(-c2cc3ccc(C(=O)O)cc3[nH]2)ncn1 [Example 127]"
quantity = "pIC50"
observed = 7.70

[[record]]
compound = "CCOc1cc(-c2cc(NCCc3c(F)ccc4ccccc34)ncn2)ccc1CC(=O)O [Example 97]"
quantity = "pIC50"
observed = 6.66

[[record]]
compound = "COc1ccc2ccccc2c1CCNc1cc(-c2cc3cc(C(=O)O)ccc3[nH]2)ncn1 [Example 130]"
quantity = "pIC50"
observed = 7.57

[[record]]
compound = "O=C(O)c1ccc(-c2cc(NCCc3c(F)ccc4ccccc34)ncn2)cc1OC1CCC1 [Example 94]"
quantity = "pIC50"
observed = 7.28

[[record]]
compound = "CCOc1cc(-c2cc(NCCc3c(OCC)ccc4ccccc34)ncn2)sc1C(=O)O [Example 27]"
quantity = "pIC50"
observed = 8.70

[[record]]
compound = "COc1cc(CCNc2cc(-c3ccc(C(=O)O)c(OC4CCC4)c3)ncn2)c2ccccc2c1 [Example 41]"
quantity = "pIC50"
observed = 6.53

[[record]]
compound = "CCOc1cc(-c2cc(NCCc3c(Br)ccc4ccccc34)ncn2)ccc1C(=O)O [Example 7]"
quantity = "pIC50"
observed = 7.17

[[record]]
compound = "CSc1cc(-c2cc(NCCc3ccc(Br)c4ccccc34)ncn2)ccc1C(=O)O [Example 171]"
quantity = "pIC50"
observed = 7.06

[[record]]
compound = "CCOc1cc(-c2cc(NCCc3c(F)ccc4ccccc34)ncn2)sc1C(=O)O [Example 95]"
quantity = "pIC50"
observed = 8.40

[[record]]
compound = "CCOc1cc(-c2cc(NCCc3cccc4cc(C)n(C)c34)ncn2)sc1C(=O)O [Example 56]"
quantity = "pIC50"
observed = 7.28

[[record]]
compound = "CCOc1cc(-c2cc(NCCc3c(C)ccc4ccccc34)ncn2)sc1C(=O)O [Example 1]"
quantity = "pIC50"
observed = 8.40

[[record]]
compound = "CCOc1cc(-c2cc(NCCc3c(OC(F)F)ccc4ccccc34)ncn2)sc1C(=O)O [Example 32]"
quantity = "pIC50"
observed = 8.00

[[record]]
compound = "CCOc1cc(-c2cc(NCCc3cccc4nc(C)sc34)ncn2)sc1C(=O)O [Example 31]"
quantity = "pIC50"
observed = 6.72


Every entry's value here was drawn from patent US11446298B2.
